- Tested on: Escherichia coli 2018
measured_endpoint: MIC (µg/mL)
Numbers only, in µg/mL.

compound="COC1C=COC2(C)Oc3c(C)c(O)c4c(O)c(c5nc(N6CCN(CC(C)C)CC6)[nH]c5c4c3C2=O)NC(=O)C(C)=CC=CC(C)C(O)C(C)C(O)C(C)C(OC(C)=O)C1C (stereo not drawn)" measured_endpoint=MIC value=4

Count: 2. Required value per item: MIC.
1. CCCN(CC1CC1)c1nc2c3c(O)c4c(O)c(C)c5c(c4c2[nH]1)C(=O)C(C)(OC=CC(OC)C(C)C(OC(C)=O)C(C)C(O)C(C)C(O)C(C)C=CC=C(C)C(=O)N3)O5 (stereo not drawn)
2. CCN(CC)CCN(CC)c1nc2c([nH]1)c1c(O)c3c(O)c(C)c4c(c32)C(=O)[C@@](C)(O/C=C/[C@H](OC)[C@@H](C)[C@@H](OC(C)=O)[C@H](C)[C@H](O)[C@H](C)[C@@H](O)[C@@H](C)/C=C/C=C(/C)C(=O)N1)O4

**Result**
8
4
